# Study system: C5a anaphylatoxin chemotactic receptor 1 (Homo sapiens)
# Assay details: Inhibition of radiolabeled C5a binding to its membrane bound C5a anaphylatoxin chemotactic receptor
Property name: Activity (µg/mL)
Only the number, expressed in µg/mL, is required.

{"columns": ["Structure string", "Activity [µg/mL]"],
 "data": [
  ["CC[C@H](C)C[C@H]1CC[C@](O)([C@](C)(O)C(=O)N[C@@H]2C(=O)N3NCCC[C@@H]3C(=O)N(O)[C@@H](C)C(=O)NCC(=O)N3NCCC[C@H]3C(=O)N(OC)[C@H](C)C(=O)O[C@H]2C(C)C)O[C@@H]1C", 2]
]}

Next molecule, please.
Req: Tell me its Activity given CC[C@H](C)C[C@H]1CC[C@](O)([C@](C)(O)C(=O)N[C@@H]2C(=O)N[C@H](CCCN)C(=O)N(O)[C@@H](C)C(=O)NCC(=O)N3NCCC[C@H]3C(=O)N(O)[C@H](C)C(=O)O[C@H]2C(C)C)O[C@@H]1C as the entry.
Resp: 60

* * *

# Concentration causing nonspecific degranulation (MPO release) annotations
# Study system: C5a anaphylatoxin chemotactic receptor 1 (Homo sapiens) (UniProt P21730)
# Sequence (P21730 whole entry): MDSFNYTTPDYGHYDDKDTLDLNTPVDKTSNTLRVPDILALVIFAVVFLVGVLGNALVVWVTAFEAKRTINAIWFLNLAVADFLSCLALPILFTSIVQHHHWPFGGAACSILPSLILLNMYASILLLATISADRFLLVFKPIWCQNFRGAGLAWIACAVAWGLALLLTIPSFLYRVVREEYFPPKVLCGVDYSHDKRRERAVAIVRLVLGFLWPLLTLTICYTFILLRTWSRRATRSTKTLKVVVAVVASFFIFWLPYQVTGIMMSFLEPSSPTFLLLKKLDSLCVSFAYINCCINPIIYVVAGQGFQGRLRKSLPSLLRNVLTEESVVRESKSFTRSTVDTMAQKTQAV
# Assay details: Nonspecific degranulation of polymorho neutrophils as measured by myeloperoxidase (MPO) release in a whole functional cell assay
Report only the number, with the unit µg/mL understood.

{"columns": ["Compound", "Test result"],
 "data": [
  ["CCC(C)C[C@H]1CC[C@](O)([C@](C)(O)C(=O)N[C@H]2COC(=O)[C@@H](C)NC(=O)[C@@H]3CCCNN3C(=O)CNC(=O)[C@H](C)N(O)C(=O)[C@H]3CCCNN3C2=O)O[C@@H]1C (single isomer, unassigned)", 26],
  ["CC(O)C(=O)N[C@@H]1C(=O)N2NCCC[C@@H]2C(=O)N(O)[C@@H](C)C(=O)NCC(=O)N2NCCC[C@H]2C(=O)N(O)[C@H](C)C(=O)O[C@H]1C(C)C (stereo in doubt; 25)", 23]
]}

// next item, Concentration causing nonspecific degranulation (MPO release) requested
Req: Specify measured Concentration causing nonspecific degranulation (MPO release) for CC[C@H](C)C[C@H]1CC[C@](O)([C@](C)(O)C(=O)N[C@@H]2C(=O)N3NCCC[C@@H]3C(=O)N(O)[C@@H](C)C(=O)NCC(=O)N3NCCC[C@H]3C(=O)N(OC)[C@H](C)C(=O)O[C@H]2C(C)C)O[C@@H]1C .
Resp: 2

* * *

# Study system: C5a anaphylatoxin chemotactic receptor 1 (Homo sapiens) (UniProt P21730)
# Assay details: Nonspecific degranulation of polymorho neutrophils as measured by myeloperoxidase (MPO) release in a whole functional cell assay
Label key: Criterion met means Concentration causing nonspecific degranulation (MPO release) under 7 µg/mL; Criterion not met means Concentration causing nonspecific degranulation (MPO release) of 7 µg/mL or more.

Before answering, review these 5 worked examples.
{"columns": ["Molecule", "Study system", "Class assignment"],
 "data": [
  ["CC[C@@H](C)CC1CCC(O)([C@](C)(O)C(=O)NC2C(=O)N3NCCC[C@@H]3C(=O)N(O)[C@@H](C)C(=O)NCCC(=O)N3NCCC[C@H]3C(=O)N(O)[C@H](C)C(=O)O[C@H]2C(C)C)OC1C (some centres undefined)", "C5a anaphylatoxin chemotactic receptor 1 (Homo sapiens) (UniProt P21730)", "Criterion not met"],
  ["CC(C)[C@@H]1OC(=O)[C@@H](C)N(O)C(=O)[C@@H]2CCCNN2C(=O)CNC(=O)[C@H](C)N(O)C(=O)[C@H]2CCCNN2C(=O)[C@H]1NC(=O)[C@](C)(O)CCCc1ccccc1", "C5a anaphylatoxin chemotactic receptor 1 (Homo sapiens) (UniProt P21730)", "Criterion not met"],
  ["CC(O)C(=O)N[C@@H]1C(=O)N2NCCC[C@@H]2C(=O)N(O)[C@@H](C)C(=O)NCC(=O)N2NCCC[C@H]2C(=O)N(O)[C@H](C)C(=O)O[C@H]1C(C)C (stereo in doubt; 26)", "C5a anaphylatoxin chemotactic receptor 1 (Homo sapiens) (UniProt P21730)", "Criterion not met"],
  ["CCC(C)C[C@H]1CC[C@](O)([C@](C)(O)C(=O)N[C@@H]2C(=O)N3NCCC[C@@H]3C(=O)N(O)[C@@H](C)C(=O)NCC(=O)N3NCCC[C@H]3C(=O)N[C@H](C)C(=O)OC2C)O[C@@H]1C (single isomer, unassigned)", "C5a anaphylatoxin chemotactic receptor 1 (Homo sapiens) (UniProt P21730)", "Criterion met"],
  ["CC[C@H](C)C[C@H]1CC[C@](O)([C@](C)(O)C(=O)N[C@@H]2C(=O)N3NCCC[C@@H]3C(=O)N(CC(=O)OC(C)(C)C)[C@@H](C)C(=O)NCC(=O)N3NCCC[C@H]3C(=O)N(O)[C@H](C)C(=O)O[C@H]2C(C)C)O[C@@H]1C", "C5a anaphylatoxin chemotactic receptor 1 (Homo sapiens) (UniProt P21730)", "Criterion not met"]
]}

Req: Strictly below 7 µg/mL: is that where Concentration causing nonspecific degranulation (MPO release) of CC[C@H](C)C[C@H]1CC[C@](O)([C@](C)(O)C(=O)N[C@@H]2C(=O)N[C@H](CCCNC(C)=O)C(=O)N(O)[C@@H](C)C(=O)NCC(=O)N3NCCC[C@H]3C(=O)N(O)[C@H](C)C(=O)O[C@H]2C(C)C)O[C@@H]1C sits?
Resp: Criterion not met

Req: For this molecule, is Concentration causing nonspecific degranulation (MPO release) lower than 7 µg/mL? CC[C@H](C)C[C@H]1CC[C@](O)([C@](C)(O)C(=O)N[C@@H]2C(=O)N3CCCC[C@@H]3C(=O)N(O)[C@@H](C)C(=O)NCC(=O)N3NCCC[C@H]3C(=O)N(O)[C@H](C)C(=O)O[C@H]2C(C)C)O[C@@H]1C
Resp: Criterion not met

Req: API: query returns whether the molecule falls strictly under 7 µg/mL in Concentration causing nonspecific degranulation (MPO release). Query: CC[C@H](C)C[C@H]1CC[C@](O)([C@](C)(O)C(=O)N[C@@H]2C(=O)N3NCCC[C@@H]3C(=O)N(C)[C@@H](C)C(=O)NCC(=O)N3NCCC[C@H]3C(=O)N(O)[C@H](C)C(=O)O[C@H]2C(C)C)O[C@@H]1C
Resp: Criterion met

* * *

In this section we review reported Activity values for a set of molecules.
# Study system: C5a anaphylatoxin chemotactic receptor 1 (Homo sapiens)
# Assay details: Inhibition of radiolabeled C5a binding to its membrane bound C5a anaphylatoxin chemotactic receptor

{"columns": ["Molecule", "Study system", "Property name", "Test result"],
 "data": [
  ["CC(O)C(=O)N[C@@H]1C(=O)N2NCCC[C@@H]2C(=O)N(O)[C@@H](C)C(=O)NCC(=O)N2NCCC[C@H]2C(=O)N(O)[C@H](C)C(=O)O[C@H]1C(C)C (stereo in doubt; 25)", "C5a anaphylatoxin chemotactic receptor 1 (Homo sapiens)", "Activity", "23 µg/mL"]
]}

Req: Let me know recorded Activity for CC[C@H](C)C[C@H]1CC[C@](O)([C@](C)(O)C(=O)N[C@@H]2C(=O)N[C@H](CCCNC(C)=O)C(=O)N(O)[C@@H](C)C(=O)NCC(=O)N3NCCC[C@H]3C(=O)N(O)[C@H](C)C(=O)O[C@H]2C(C)C)O[C@@H]1C , thanks.
Resp: > 100 µg/mL

Req: Please list Activity recorded for the molecule CC[C@H](C)C[C@H]1CC[C@](O)([C@](C)(O)C(=O)N[C@@H]2C(=O)N3CCCC[C@@H]3C(=O)N(O)[C@@H](C)C(=O)NCC(=O)N3NCCC[C@H]3C(=O)N(O)[C@H](C)C(=O)O[C@H]2C(C)C)O[C@@H]1C
Resp: 75 µg/mL

Req: Assign Activity to the following record: CC[C@H](C)C[C@H]1CC[C@](O)([C@](C)(O)C(=O)N[C@@H]2C(=O)N3NCCC[C@@H]3C(=O)N[C@@H](C)C(=O)NCC(=O)N3NCCC[C@H]3C(=O)N(O)[C@H](C)C(=O)O[C@H]2C(C)C)O[C@@H]1C
Resp: > 100 µg/mL

Req: Write down Activity measured for item CC[C@H](C)C[C@H]1CC[C@](O)([C@](C)(O)C(=O)N[C@@H]2C(=O)N3NCCC[C@@H]3C(=O)N(OCc3ccccc3)[C@@H](C)C(=O)NCC(=O)N3NCCC[C@H]3C(=O)N(O)[C@H](C)C(=O)O[C@H]2C(C)C)O[C@@H]1C
Resp: 4 µg/mL

Req: Identify measured Activity associated with CC(O)C(=O)N[C@@H]1C(=O)N2NCCC[C@@H]2C(=O)N(O)[C@@H](C)C(=O)NCC(=O)N2NCCC[C@H]2C(=O)N(O)[C@H](C)C(=O)O[C@H]1C(C)C (stereo in doubt; 26)
Resp: > 100 µg/mL

Req: Look up and state reported Activity for CC(C)[C@@H]1OC(=O)[C@@H](C)N(O)C(=O)[C@@H]2CCCNN2C(=O)CNC(=O)[C@H](C)N(O)C(=O)[C@H]2CCCNN2C(=O)[C@H]1NC(=O)[C@](C)(O)CCCc1ccccc1
Resp: 100 µg/mL

Req: // fetch Activity given entry CC[C@H](C)C[C@H]1CC[C@](O)([C@](C)(O)C(=O)N[C@@H]2C(=O)N3NCCC[C@@H]3C(=O)N(CC(=O)OC(C)(C)C)[C@@H](C)C(=O)NCC(=O)N3NCCC[C@H]3C(=O)N(O)[C@H](C)C(=O)O[C@H]2C(C)C)O[C@@H]1C
Resp: 100 µg/mL

Req: Give the reported value of Activity for this record: CCC(C)C[C@H]1CC[C@H]([C@](C)(O)C(=O)N[C@@H]2C(=O)N3NCCC[C@@H]3C(=O)N(O)[C@@H](C)C(=O)NCC(=O)N3NCCC[C@H]3C(=O)N(O)[C@H](C)C(=O)O[C@H]2C(C)C)O[C@@H]1C (single isomer, unassigned)
Resp: 3.6 µg/mL

Req: Provide one value: measured Activity of CC[C@H](C)C[C@H]1CC[C@](O)([C@](C)(O)C(=O)N[C@@H]2C(=O)N3NCCC[C@@H]3C(=O)N(O)[C@@H](C)C(=O)NCC(=O)N3NCCC[C@H]3C(=O)N[C@H](C)C(=O)O[C@H]2C(C)C)O[C@@H]1C
Resp: 21 µg/mL

Req: Specify reported Activity for the molecule shown: CC[C@H](C)C[C@H]1CC[C@](O)([C@](C)(O)C(=O)N[C@@H]2C(=O)N3NCCC[C@@H]3C(=O)N(OC)[C@@H](C)C(=O)NCC(=O)N3NCCC[C@H]3C(=O)N(C)[C@H](C)C(=O)O[C@H]2C(C)C)O[C@@H]1C
Resp: 7 µg/mL

Req: For the molecule CCC(C)C[C@H]1CC[C@](O)([C@](C)(O)C(=O)N[C@@H]2C(=O)N3NCCC[C@@H]3C(=O)N(O)[C@@H](C)C(=O)NCC(=O)N3NCCC[C@H]3C(=O)N[C@H](C)C(=O)OC2C)O[C@@H]1C (single isomer, unassigned) , report Activity.
Resp: 2 µg/mL

Req: Query Activity for CC[C@H](C)C[C@H]1CC[C@](O)([C@](C)(O)C(=O)N[C@@H]2C(=O)N3NCCC[C@@H]3C(=O)N(O)[C@@H](C)C(=O)NCC(=O)N3NCCC[C@H]3C(=O)N(C)[C@H](C)C(=O)O[C@H]2C(C)C)O[C@@H]1C
Resp: 5 µg/mL

Req: # return recorded Activity for entry CC[C@@H](C)CC1CCC(O)([C@](C)(O)C(=O)NC2C(=O)N3NCCC[C@@H]3C(=O)N(O)[C@@H](C)C(=O)NCCC(=O)N3NCCC[C@H]3C(=O)N(O)[C@H](C)C(=O)O[C@H]2C(C)C)OC1C (some centres not stated)
Resp: > 100 µg/mL

Req: Answer with the recorded Activity of CC[C@H](C)C[C@H]1CC[C@](O)([C@](C)(O)C(=O)N[C@@H]2C(=O)N3NCCC[C@@H]3C(=O)N(OC)[C@@H](C)C(=O)NCC(=O)N3NCCC[C@H]3C(=O)N(OC)[C@H](C)C(=O)O[C@H]2C(C)C)O[C@@H]1C only.
Resp: 6 µg/mL

Req: Respond only with Activity recorded for CCC(C)C[C@H]1CC[C@](O)([C@](C)(O)C(=O)N[C@H]2COC(=O)[C@@H](C)NC(=O)[C@@H]3CCCNN3C(=O)CNC(=O)[C@H](C)N(O)C(=O)[C@H]3CCCNN3C2=O)O[C@@H]1C (single isomer, unassigned)
Resp: > 100 µg/mL

Req: Write down Activity measured for item CC[C@H](C)C[C@H]1CC[C@](O)([C@](C)(O)C(=O)N[C@@H]2C(=O)N3NCCC[C@@H]3C(=O)N(O)[C@@H](C)C(=O)N[C@@H](C)C(=O)N3NCCC[C@H]3C(=O)N(O)[C@H](C)C(=O)O[C@H]2C(C)C)O[C@@H]1C
Resp: 60 µg/mL
